# assayed_system: Stp1 (UniProt B3LFK1)
# Sequence: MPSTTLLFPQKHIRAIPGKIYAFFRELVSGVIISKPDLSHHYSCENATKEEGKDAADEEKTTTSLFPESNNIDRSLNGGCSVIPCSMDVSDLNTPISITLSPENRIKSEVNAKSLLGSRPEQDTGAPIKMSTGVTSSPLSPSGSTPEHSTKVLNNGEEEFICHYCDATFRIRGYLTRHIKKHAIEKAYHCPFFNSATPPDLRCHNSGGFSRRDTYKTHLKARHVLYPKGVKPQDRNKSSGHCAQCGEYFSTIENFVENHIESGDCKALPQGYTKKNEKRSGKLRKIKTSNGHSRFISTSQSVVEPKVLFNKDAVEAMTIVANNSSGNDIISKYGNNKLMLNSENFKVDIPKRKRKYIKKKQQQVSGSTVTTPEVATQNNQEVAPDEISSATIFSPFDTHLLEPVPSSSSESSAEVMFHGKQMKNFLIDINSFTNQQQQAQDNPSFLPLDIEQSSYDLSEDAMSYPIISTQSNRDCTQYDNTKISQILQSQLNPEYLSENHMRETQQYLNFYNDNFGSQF
# procedure_text: PBM E-score (8-mer binding enrichment) (E-score (-0.5 to 0.5)); higher = stronger / more preferred TF binding
# test_conditions: protein concentration: 200 nM; construct: GST-full length
The full ranking holds about 33,000 sequences; the median of “E-score (-0.5 to 0.5)” is about -0.016, and the highest 2% start at about 0.32. Shown is part of a subset that was picked to be rich in the highest values.

{"columns": ["polymer_sequence", "assayed_system", "PBM E-score"],
 "data": [
  ["CGCGCGGA", "Stp1 (UniProt B3LFK1)", 0.256],
  ["GGCGCGGA", "Stp1 (UniProt B3LFK1)", 0.337],
  ["GGCGCGCC", "Stp1 (UniProt B3LFK1)", 0.423],
  ["GGCGCGTA", "Stp1 (UniProt B3LFK1)", 0.186],
  ["CGCGCGCA", "Stp1 (UniProt B3LFK1)", 0.272],
  ["CGCGCAAA", "Stp1 (UniProt B3LFK1)", 0.198],
  ["GGCGCCCC", "Stp1 (UniProt B3LFK1)", 0.284],
  ["ATCACGGA", "Stp1 (UniProt B3LFK1)", -0.0235],
  ["CACACGGC", "Stp1 (UniProt B3LFK1)", 0.471],
  ["GGCGCGCA", "Stp1 (UniProt B3LFK1)", 0.318],
  ["AACCAAAG", "Stp1 (UniProt B3LFK1)", 0.0816]
]}
